# System: A549/ATCC NSCLC
# measurement.description: NCI-60 one-dose screen, 48 h (100 = growth as untreated, 0 = no growth, -100 = all killed)
# applied.conditions: 10 µM unless noted
About 83,000 compounds went through this panel and 20% of them were active in at least one assay; those are over-represented in the sample as a whole.
Grouping by measured growth is done with the following cut points: Low = under 70%, Medium = from 70% up to 90%, High = 90% and over

# compound, qualitative.label
data = [
    ("COc1ccc(OCC(=O)Nc2ccc(-c3nc4ccccc4s3)cc2C)cc1", "Medium"),
]

Task item: Into which category would you place COC(=S)SCN(CSC(=S)OC)c1ccc(Cl)cc1 ?
Reply: Medium

Task item: Into which category would you place COc1ccc(-c2nc(Nc3cc(C)[nH]n3)c3ccccc3n2)cc1 ?
Reply: Low

Task item: Into which category would you place C#Cc1nc2ccccc2c(=O)[nH]1 ?
Reply: Low

Task item: Into which category would you place O=[N+]([O-])c1cccc(-c2nc3sccn3c2-c2ccnc(NCCCNS(=O)(=O)c3ccc(Br)cc3)n2)c1 ?
Reply: Low

Task item: Into which category would you place CC/C=C\C[C@H](O)C/C=C1/C(=O)C=C[C@@H]1C/C=C\CCCC(N)=O ?
Reply: Low

Task item: Into which category would you place CN1CCCCC1CCN1c2ccccc2Sc2ccc(Br)cc21 (stereo unspecified) ?
Reply: Low

Task item: Into which category would you place O=C(CCN1CCOCC1)Nc1ccc(Cn2nnc3c2C(=O)c2nnn(Cc4ccc(NC(=O)CCN5CCOCC5)cc4)c2C3=O)cc1 ?
Reply: Medium

Task item: Into which category would you place O=C1O[C@H]([C@H](O)CO)C(O)=C1O ?
Reply: High

Task item: Into which category would you place Clc1nc(Cl)c2c3c(sc2n1)CCCC3 ?
Reply: High

Task item: Into which category would you place CCOC(=O)Cc1cnn(C)c1NC(=O)c1ccc(Cl)cc1NC(C)=O ?
Reply: High

Task item: Into which category would you place O=C(CN1CCOCC1)Nc1ccc(Cn2nnc3c2C(=O)c2nnn(Cc4ccc(NC(=O)CN5CCOCC5)cc4)c2C3=O)cc1 ?
Reply: Low

Task item: Into which category would you place O=C(Nc1ccc(Nc2cc(Nc3ccccc3)ncn2)cc1)Nc1cc(C(F)(F)F)ccc1F ?
Reply: Low

Task item: Into which category would you place Nc1nc(-c2ccc(F)cc2)cc(-c2cnn(-c3ccccc3)n2)n1 ?
Reply: High

Task item: Into which category would you place CC(=O)OCC1OC(OC2=C(CC=C(Cl)Cl)C(=O)c3ccccc3C2=O)C(OC(C)=O)C(OC(C)=O)C1OC(C)=O (stereo unspecified) ?
Reply: High

Task item: Into which category would you place COc1ccc(-c2cc(NC(=O)Nc3ccc(O)cc3)no2)cc1 ?
Reply: Low

Task item: Into which category would you place C[C@@H]1CC[C@@H]2[C@@H]1[C@H](OC(=O)/C=C/c1ccccc1)[C@]1(c3ccccc3)C[C@@H](OC(=O)CO)[C@@]2(C)O1 ?
Reply: Medium

Task item: Into which category would you place COCCOC(=O)C1=C(C)NC(=S)NC1c1ccc2c(c1)OCO2 (stereo unspecified) ?
Reply: High

###

# Tested on: KM12 colon
# measurement.description: NCI-60 one-dose screen, 48 h
# applied.conditions: 10 µM unless noted
The panel holds about 83,000 compounds, 20% with a hit somewhere; the sample as a whole holds those more often. Activity calls are given as the source filed them. How the source made its calls: active means growth percent below 10; inactive means the rest.
Answer with one of the outcomes given here: Yes (active), No (inactive)

Solved entries (count: 4):
# compound, target.or.system, qualitative.label
records = [
    ("O=C1C(Cl)=C(Cl)C(=O)c2c1nc1n2CCCC1", "KM12 colon", "No"),
    ("CNCCCn1c2c(c3ccc([N+](=O)[O-])cc3c1=O)C(=O)c1cc(OC)cnc1-2", "KM12 colon", "Yes"),
    ("Cc1ccc(-c2nc(/C=N/Nc3cc(C)nc4ccc(Cl)cc34)c(C)o2)cc1", "KM12 colon", "Yes"),
    ("CC(C)CC(CC1=CCC2CC1C2(C)C)C1=C(O)C(C)(C)C(=O)C(C)(C)C1=O (stereo not drawn)", "KM12 colon", "Yes"),
]

Task item: Call for entry CC(C)c1c(C(=O)Nc2ccccc2)c(-c2ccccc2)c(-c2ccc(F)cc2)n1CC[C@@H]1CC=CC(=O)O1 :
Reply: Yes

Task item: Call for entry O=C(CN1CCN(c2cc3c(cc2F)c(=O)c(C(=O)O)cn3C2CC2)CC1)Nc1nc(-c2ccc(Cl)cc2)cs1 :
Reply: No

Task item: Call for entry CCOC(=O)/C=C/C(=O)[C@H](CC(C)C)NC(=O)[C@H](Cc1ccccc1)NC(=O)OCc1ccccc1 :
Reply: No

###

# Test system: UACC-62 melanoma
# measurement.description: NCI-60 one-dose screen, 48 h
# applied.conditions: 10 µM unless noted
About 83,000 compounds went through this panel and 20% of them were active in at least one assay; those are over-represented in the sample as a whole. Calls of active or inactive are those of the source. The calls were made as follows: active = growth percent below 10; inactive = the rest.
Answer with one of the outcomes given here: active, inactive

Solved entries (count: 3):
# molecule, qualitative.label
data = [
    ("CCOC(=O)C12CCCC1=CC(=O)CC2 (stereo not given)", "inactive"),
    ("Cc1cc(Nc2nc(N3CCOCC3)nc3ccccc23)n[nH]1", "inactive"),
    ("CC(=O)Oc1cc2cnc3c4cc(OC(C)=O)c(OC(C)=O)cc4ccc3c2cc1OC(C)=O", "active"),
]

Task item: Call for entry O=C1OC2C(I)C3CC2C1C3c1ccccc1 (stereo not given) :
Reply: inactive

Task item: Call for entry NC1=CSC2=N/C(=C\c3ccc(Cl)cc3)C(=O)N12 :
Reply: inactive

Task item: Call for entry CCOC(=O)c1c2ncccc2n2c(=O)n(-c3ccc(Cl)cc3)nnc12 :
Reply: inactive

Task item: Call for entry CCN(CC)CCC(=O)c1ccc(OC)c2ccccc12 :
Reply: inactive

Task item: Call for entry Cc1ccc(-c2nc(/C=N/Nc3cc(C)nc4ccc(Cl)cc34)c(C)o2)cc1 :
Reply: inactive

Task item: Call for entry Cn1c(=O)c2c(ncn2CC[N+](C)(C)C)n(C)c1=O :
Reply: inactive

Task item: Call for entry COc1ccc(-c2c(C)noc2-c2ccc(O)cc2O)cc1 :
Reply: inactive

Task item: Call for entry O=C(CN1CCN(c2cc3c(cc2F)c(=O)c(C(=O)N/N=C/c2ccccc2)cn3C2CC2)CC1)N/N=C\c1ccccc1 :
Reply: inactive

Task item: Call for entry CC[C@]12C=CCN3CC[C@@]4(c5ccc(OC)cc5N(C)[C@H]4[C@@](O)(C(=O)OC)[C@@H]1OC(=O)CCC(=O)N[C@@H](Cc1c[nH]c4ccccc14)C(=O)OC)[C@@H]32 :
Reply: inactive

Task item: Call for entry CCOC(=O)Cc1cnn(C)c1NC(=O)c1ccc(Cl)cc1NC(C)=O :
Reply: inactive

Task item: Call for entry CS(=O)(=O)c1c(Nc2ccccc2)n[nH]c1N :
Reply: inactive

Task item: Call for entry O=C(C[C@@H](C(=O)NCc1cccc(C(F)(F)F)c1)N1C(=O)[C@@H](N2C(=O)OC[C@@H]2c2ccccc2)[C@H]1/C=C/c1ccccc1)NC1CCN(Cc2ccccc2)CC1 :
Reply: inactive

###

# Test system: OVCAR-8 ovarian
# measurement.description: NCI-60 one-dose screen, 48 h (100 = growth as untreated, 0 = no growth, -100 = all killed)
# applied.conditions: 10 µM unless noted
This is part of a sample that, as a whole, favours compounds with a hit. Of some 83,000 tested, about 20% had one in any assay.
measurement.name: growth (%)
Answers are plain numbers, in %.

Reference set, count: 3
# molecule, growth [%]
measured = [
    ("CC(=O)O[C@H]1CC[C@]2(C)[C@H]3CC[C@@H]4[C@H]5[C@H](C(C)C)CC[C@]5(C(=O)OCC(CO)(CO)N=C(N)N)CC[C@@]4(C)[C@]3(C)CC[C@H]2C1(C)C", -31.9),
    ("COc1ccc(-n2cc(-c3ccccc3)c3c(SCC(=O)N/N=C/c4ccc([N+](=O)[O-])cc4)ncnc32)cc1", 103),
    ("COc1ccc2nc3cc(Cl)ccc3c(N3CCN(c4nccc(NCc5ccccc5)n4)CC3)c2c1", 71.4),
]

Lab note: each molecule below needs its growth filled in.
1. C/C(=C(/c1ccc(O)cc1)c1ccc(OCCN2CCCC2)cc1)c1ccccc1
2. COc1cccc(NC(=O)c2sc3nc4c(cc3c2N)CN(Cc2ccccc2)CC4)c1
3. COc1ccc2nc3cc(Cl)ccc3c(NCCNCC(O)CO)c2c1 (stereo not drawn)
4. S=c1[nH]nc(CSc2ncnc3c2c(-c2ccccc2)cn3-c2ccc(Cl)cc2)o1
5. CC(=O)CC(C)(C)c1ccc(Cl)cc1

Reply:
[83, 47, 23.3, 97.5, 101]

###

# Test system: SK-MEL-28 melanoma
# measurement.description: NCI-60 one-dose screen, 48 h (100 = growth as untreated, 0 = no growth, -100 = all killed)
# applied.conditions: 10 µM unless noted
# Description: Growth inhibition of the SK-MEL-28 human tumor cell line is measured as a screen for anti-cancer activity. Cells are grown in 96 well plates and exposed to the test compound for 48 hours. Compounds are tested at a single concentration, which is 10^-5 M for most compounds. The reported endpoint is percent growth (GI% or GIPRCNT), where numbers from 0 - 100% represent growth inhibition, and numbers from -100% - 0 represent cell death. For example, a value of 40 represents 60% growth inhibition. […]
About 83,000 compounds went through this panel and 20% of them were active in at least one assay; those are over-represented in the sample as a whole.
measurement.name: growth (%)
Give bare numbers, in %.

Reference set, count: 3
# compound, number
records = [
    ("CCC(c1ccccc1)C(CC)c1ccc(O)c(O)c1 (centres undefined)", 95.4),
    ("COc1ccc(S(=O)(=O)NCCCNc2nccc(-c3c(-c4cccc(N)c4)nc4sccn34)n2)cc1", 93.1),
    ("CN1CCN(Cc2ccc(NC(=O)c3cncc(C#Cc4c(N)ncc5ccc(C#N)cc45)c3)cc2C(F)(F)F)CC1", -78.7),
]

// below: growth requested for another compound
Task item: Using the record for C/C(Cc1ccc(Cl)cc1)=C(\c1ccc(OCCN2CCCCCC2)cc1)c1ccc(OC(=O)Cc2ccccc2)cc1 , state its measured growth.
Reply: 71.3
